Tested on: 323965-272-R-J2-PDC complex spheroid growth, % test/control
Assay: Anticancer human tumor 323965-272-R-J2-PDC patient-derived pancreatic carcinoma cell line growth inhibition [Asc]
Details: second compound 0.1 µM; first compound 0.1 µM; stronger effect = lower value
// assign t if viability, T/C falls strictly below 80%, else f (ties count as f)

// known answers, use as guide
>>> label_value("C=C(F)C(=O)N1CCN(c2nc(OCC3CCCN3C)nc3c2CCN(c2cccc4cccc(Cl)c24)C3)CC1CC#N (stereo unspecified) + Cc1c(S(C)(=O)=O)c(-c2cc(F)cc(N3CCN(c4ccc(NS(=O)(=O)c5ccc(NC(CCN6CCC(C(=O)OCCCP(=O)(O)O)CC6)CSc6ccccc6)c(S(=O)(=O)C(F)(F)F)c5)cc4)CC3)c2)c(-c2ccc(Cl)cc2)n1C(C)C")
"t"
>>> label_value("CCN1CCN(Cc2ccc(Nc3ncc(F)c(-c4cc(F)c5nc(C)n(C(C)C)c5c4)n3)nc2)CC1 + Cc1c(S(C)(=O)=O)c(-c2cc(F)cc(N3CCN(c4ccc(NS(=O)(=O)c5ccc(NC(CCN6CCC(C(=O)OCCCP(=O)(O)O)CC6)CSc6ccccc6)c(S(=O)(=O)C(F)(F)F)c5)cc4)CC3)c2)c(-c2ccc(Cl)cc2)n1C(C)C")
"f"
>>> label_value("O=C(c1ccc(F)c(F)c1Nc1ccc(I)cc1F)N1CC(O)([C@@H]2CCCCN2)C1 + Cc1c(S(C)(=O)=O)c(-c2cc(F)cc(N3CCN(c4ccc(NS(=O)(=O)c5ccc(NC(CCN6CCC(C(=O)OCCCP(=O)(O)O)CC6)CSc6ccccc6)c(S(=O)(=O)C(F)(F)F)c5)cc4)CC3)c2)c(-c2ccc(Cl)cc2)n1C(C)C")
"t"
>>> label_value("CNC(C)C(=O)NC1CN(S(=O)(=O)c2cccc(S(=O)(=O)N3CCC4CCC(C(=O)NC(c5ccccc5)c5ccccc5)N4C(=O)C(NC(=O)C(C)NC)C3)c2)CCC2CCC(C(=O)NC(c3ccccc3)c3ccccc3)N2C1=O (stereo unspecified) + Cc1c(S(C)(=O)=O)c(-c2cc(F)cc(N3CCN(c4ccc(NS(=O)(=O)c5ccc(NC(CCN6CCC(C(=O)OCCCP(=O)(O)O)CC6)CSc6ccccc6)c(S(=O)(=O)C(F)(F)F)c5)cc4)CC3)c2)c(-c2ccc(Cl)cc2)n1C(C)C")
"f"
>>> label_value("O=C(c1cc(Cc2n[nH]c(=O)c3ccccc23)ccc1F)N1CCN(C(=O)C2CC2)CC1 + Cc1c(S(C)(=O)=O)c(-c2cc(F)cc(N3CCN(c4ccc(NS(=O)(=O)c5ccc(NC(CCN6CCC(C(=O)OCCCP(=O)(O)O)CC6)CSc6ccccc6)c(S(=O)(=O)C(F)(F)F)c5)cc4)CC3)c2)c(-c2ccc(Cl)cc2)n1C(C)C")
"f"

Please look at the following molecule next.
viability, T/C under 80%? Item: O=C(c1ccc(F)c(F)c1Nc1ccc(I)cc1F)N1CC(O)([C@@H]2CCCCN2)C1 + CNC(C)C(=O)NC1CN(S(=O)(=O)c2cccc(S(=O)(=O)N3CCC4CCC(C(=O)NC(c5ccccc5)c5ccccc5)N4C(=O)C(NC(=O)C(C)NC)C3)c2)CCC2CCC(C(=O)NC(c3ccccc3)c3ccccc3)N2C1=O t

* * *

Test system: 323965-272-R-J2-PDC complex spheroid growth, % test/control
Test: Anticancer human tumor 323965-272-R-J2-PDC cell line growth inhibition [Asc];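 note: compound exposure lasted 7 days starting three days after spheroid seeding; 100% = DMSO vehicle control wells with viability set relative to vehicle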
Details: second compound 0.949 µM; first compound 1 µM; stronger effect = lower value
Answer each item with its documented viability, T/C.
Give bare numbers, in %.

>>> quantitative_result("CCN1CCN(Cc2ccc(Nc3ncc(F)c(-c4cc(F)c5nc(C)n(C(C)C)c5c4)n3)nc2)CC1 + CCN1C(C(=O)NC23CCC(C(=O)O)(CC2)CC3)C(c2cccc(Cl)c2F)C2(C(=O)Nc3cc(Cl)ccc32)C12CCCCC2")
77.5

Shifting focus to the compound that follows.
Quick one: viability, T/C of CNC(C)C(=O)NC1CN(S(=O)(=O)c2cccc(S(=O)(=O)N3CCC4CCC(C(=O)NC(c5ccccc5)c5ccccc5)N4C(=O)C(NC(=O)C(C)NC)C3)c2)CCC2CCC(C(=O)NC(c3ccccc3)c3ccccc3)N2C1=O (configuration not stated) + CCN1C(C(=O)NC23CCC(C(=O)O)(CC2)CC3)C(c2cccc(Cl)c2F)C2(C(=O)Nc3cc(Cl)ccc32)C12CCCCC2 ? 88.5
